Values compiled from PubChem BioAssay AID1259407.

Test system: CCRIS mutagenicity, Ames/micronucleus/aberration tests
Assay: CCRIS mutagenicity studies
Details: Test System: UDS RAT HEPATOCYTES; Strain/Indicator: THY INCORP; Metabolic Activation: NONE
Activity calls are given as the source filed them. The rule behind the calls is not given here.
Assign a class; possible classes are active, inactive

- molecule: "CC(Br)CBr (configuration not stated)"
  qualitative_label: "active"
- molecule: "CCCCCC(C)[N+](=O)[O-] (configuration not stated)"
  qualitative_label: "active"
- molecule: "CCC[N+](=O)[O-]"
  qualitative_label: "inactive"
- molecule: "CC(C)[N+](=O)[O-]"
  qualitative_label: "active"
- molecule: "C=C(Br)C=O"
  qualitative_label: "inactive"
- molecule: "O=C(O)C1OC1C(=O)O (configuration not stated)"
  qualitative_label: "inactive"

Called result for "CCCCC[N+](=O)[O-]"
inactive

---

Test system: CCRIS mutagenicity, Ames/micronucleus/aberration tests
Assay: CCRIS mutagenicity studies
Settings: Test System: AMES SALMONELLA TYPHIMURIUM; Strain/Indicator: YG1025; Metabolic Activation: RAT, LIVER, S-9, PCB; Method: PREINCUBATION
Activity calls are given as the source filed them. How the calls were made is not given here.
Respond only with the outcome that fits, drawn from active, inactive

Study these solved cases before continuing.
- smiles_record: "O=[N+]([O-])c1ccc(Nc2ncnc3nc[nH]c23)cc1"
  qualitative_label: "inactive"
- smiles_record: "Nc1ncnc2nc(-c3ccc([N+](=O)[O-])cc3)[nH]c12"
  qualitative_label: "active"
- smiles_record: "Nc1nc(-c2ccc([N+](=O)[O-])cc2)nc2c1ncn2-c1ccc([N+](=O)[O-])cc1"
  qualitative_label: "active"

Then this molecule:
# lookup: test call for "O=[N+]([O-])c1ccc(CNc2ncnc3nc[nH]c23)cc1"
inactive

---

System: CCRIS mutagenicity, Ames/micronucleus/aberration tests
Assay: CCRIS mutagenicity studies
Settings: Test System: AMES SALMONELLA TYPHIMURIUM; Strain/Indicator: TA98; Metabolic Activation: S-9; Method: STANDARD PLATE
The source made the active and inactive calls. No rule for the calls is given here.
Respond using exactly one of the listed classes: active, inactive

- molecule: "c1ccoc1"
  qualitative_label: "active"
- molecule: "O=Cc1ccc(CO)o1"
  qualitative_label: "active"
- molecule: "C=CCc1ccc2c(c1)OCO2"
  qualitative_label: "inactive"

Look up the recorded call for "CCCCNC(=O)n1c(NC(=O)OC)nc2ccccc21" in this test.
inactive

Could you check what this test reported for O=C(c1ccccc1)C(O)c1ccccc1 (stereo not given) ?
inactive

Could you check what this test reported for "CC(=O)O[C@H]1C(=O)[C@@]2(C)[C@H]([C@H](OC(=O)c3ccccc3)[C@]3(O)C[C@H](OC(=O)[C@H](O)[C@@H](NC(=O)c4ccccc4)c4ccccc4)C(C)=C1C3(C)C)[C@]1(OC(C)=O)CO[C@@H]1C[C@@H]2O" ?
inactive

---

Test system: CCRIS mutagenicity, Ames/micronucleus/aberration tests
Experiment: CCRIS mutagenicity studies
Settings: Test System: AMES SALMONELLA TYPHIMURIUM; Strain/Indicator: TA1538; Metabolic Activation: RAT, LIVER, S-9, AROCLOR 1254; Method: STANDARD PLATE
The source made the active and inactive calls. No rule for the calls is given here.
Thanks in advance; please answer with one of these: YES = active, NO = inactive

- molecule: "NCCN1CCNCC1"
  tested_system: "CCRIS mutagenicity, Ames/micronucleus/aberration tests"
  qualitative_label: "NO"
- molecule: "O=C1CC(c2ccc(O)cc2)Oc2cc(O)cc(O)c21 (stereo unspecified)"
  tested_system: "CCRIS mutagenicity, Ames/micronucleus/aberration tests"
  qualitative_label: "NO"
- molecule: "CSC[C@H](NC(=O)COc1cccc2cnccc12)C(=O)N[C@@H](Cc1ccccc1)[C@H](O)C(=O)N1CSC[C@H]1C(=O)NC(C)(C)C"
  tested_system: "CCRIS mutagenicity, Ames/micronucleus/aberration tests"
  qualitative_label: "NO"
- molecule: "Nc1ccc(N)c2c1C(=O)c1c(N)ccc(N)c1C2=O"
  tested_system: "CCRIS mutagenicity, Ames/micronucleus/aberration tests"
  qualitative_label: "NO"
- molecule: "CSC(C)(C)/C=N/O"
  tested_system: "CCRIS mutagenicity, Ames/micronucleus/aberration tests"
  qualitative_label: "NO"

# outcome recorded in this test, key = "Cc1cc(O)c2c(c1)C(=O)c1cccc(O)c1C2=O"
NO

Outcome? "CSCC[C@H](NC(=O)COc1ccc(Cl)cc1Cl)C(=O)O"
NO

Hi, do you know how "CCN(CC)c1cc(NC(C)=O)c(N=Nc2c(Br)cc([N+](=O)[O-])cc2[N+](=O)[O-])cc1OC" came out in this test?
YES

Given "O=[N+]([O-])O" , state the outcome it received in this test.
NO

Lab log entry: "CC(=O)Nc1ccc2c(c1)Cc1cccc(O)c1-2" — outcome as called in the assay?
YES

Any idea what this test logged for "CCCCCCCCCCCCCCCC(=O)OC[C@H](O)[C@H]1OC(=O)C(O)=C1O" ?
NO
